B1: human LIGHT extracellular domain (L83-V240) [human] / WT hHVEM (L39-V202) fused with a PD-L1 transmembrane domain and EGFP, on cells [human] (parent complex)
chain 1: LIQERRSHEVNPAAHLTGANSSLTGSGGPLLWETQLGLAFLRGLSYHDGALVVTKAGYYYIYSKVQLGGVGCPLGLASTITHGLYKRTPRYPEELELLVSQQSPCGRATSSSRVWWDSSFLGGVVHLEAGEKVVVRVLDERLVRLRDGTRSYFGAFMV
chain 2: LPSCKEDEYPVGSECCPKCSPGYRVKEACGELTGTVCEPCPPGTYIAHLNGLSKCLQCQMCDPAMGLRASRNCSRTENAVCGCSPGHFCIVQDGDHCAACRAYATSSPGQRVQKGGTESQDTLCQNCPPGTFSPNGTLEECQHQTKCSWLVTKAGAGTSSSHWV

Variants of: B1
Test: flow cytometry on cells stained with soluble protein
measuredMetric: ratio to parent

alteration	measuredMetric	numericValue
chain 2 N50A	ratio to parent	0.7

1 = chain 2 E77A
2 = chain 2 L56A
Ask | Lower value for measured ratio to parent? Options: 1 , 2 Reply briefly: the label of your chosen item.
Reply | 1
(1: 1, 2: 1.8)

Hey, just so you know, these numbers are from paper PMC8558838.
